// reported concentration at 2 h for each item listed
assay: Tissue concentrations of Formula I and its metabolites in Göttingen pigs after a single oral or intravenous dose (LC-MS/MS); format: in vivo; conditions: both sexes, Göttingen, pig (minipig); lung; single intravenous bolus of Formula I 25 mg/kg; 2 hpd; read-out: Tissue concentration, lung
Numbers only here, please. The scale is ng/g.

> print(dat)
                                   compound  result.units  value
1  C[C@@]1(O)[C@H](O)[C@@H](CO)O[C@H]1n1ccc(=O)[nH]c1=S          ng/g   2330
2  CC1(O)[C@@H](O)[C@@H](COP(=O)(O)OP(=O)(O)OP(=O)(O)O)O[C@H]1n1ccc(=O)[nH]c1=S (stereo partly shown)          ng/g   3620
3  C[C@H](NP(=O)(O)OC[C@H]1O[C@@H](n2ccc(=O)[nH]c2=S)C(C)(O)C1O)C(=O)O (stereo in doubt)          ng/g    786

Below: the item to evaluate.
query: // query concentration at 2 h value for entry CC1(O)[C@@H](O)[C@@H](COP(=O)(O)O)O[C@H]1n1ccc(=O)[nH]c1=S (stereo partly shown)
result: 2040
